Numbers sourced from patent US4737504A.

System: human platelets (U46619-induced aggregation)
Assay: inhibition of U46619-induced platelet aggregation in presence of aspirin, human platelet-rich plasma
Format: cell-based
Conditions: U46619 0.5-1.5 μM, aspirin 1 mM, read-out: IC50 platelet aggregation
Experimental: The antiaggregatory and antisecretory activity on human platelets was determined by evaluating the in vitro aggregation and [^14 C]serotonin secretion in human platelet preparations. Blood was taken by venipuncture from normal human volunteers who were reported to be free of medication for at least 10 days before blood drawing. […]
Catalogue of molecules with associated IC50
State the value with its unit after it.

molecule | val
COc1cc(CC2NCCc3c2cc(O)c(O)c3F)cc(OC)c1OC (centres unmarked) [Compound 5-F-TMQ, 5-fluoro-trimetoquinol] | 7.4 µM

Consider the record given below.
Prompt: State its IC50: COc1cc(CC2NCCc3cc(O)c(O)c(F)c32)cc(OC)c1OC (centres unmarked) [Compound 8-F-TMQ, 8-fluoro-trimetoquinol]
Completion: 3.9 µM

###

system: human platelets (ADP-induced aggregation); test: inhibition of the secondary phase of ADP-induced platelet aggregation, human platelet-rich plasma; assay type: cell-based; conditions: read-out: IC50 platelet aggregation (secondary phase)
endpoint.label: IC50
State the value with its unit after it.

Prompt: Please tell me the measured IC50 for COc1cc(CC2NCCc3cc(O)c(O)cc32)cc(OC)c1OC (stereo not shown) ; system: human platelets (ADP-induced aggregation).
Completion: 340 nM

###

tested on: human platelets (epinephrine-induced aggregation); test: inhibition of the secondary phase of epinephrine-induced platelet aggregation, human platelet-rich plasma; type: cell-based; conditions: read-out: IC50 platelet aggregation (secondary phase)
endpoint.label: pIC50
Please keep in mind that pIC50 is minus log10 of the molar concentration; only the number is needed.

Prompt: State its pIC50: COc1cc(CC2NCCc3cc(O)c(O)cc32)cc(OC)c1OC (stereo not shown) [TMQ, trimetoquinol]
Completion: 5.76

###

System: human platelets (epinephrine-induced serotonin secretion)
Assay: inhibition of epinephrine-induced serotonin secretion, human platelet-rich plasma
Type: cell-based
Settings: epinephrine 1-10 μM, read-out: IC50 serotonin secretion
Method: The antiaggregatory and antisecretory activity on human platelets was determined by evaluating the in vitro aggregation and [^14 C]serotonin secretion in human platelet preparations. […] Secretion data were calculated as the net increase of serotonin released into the supernatant by each inducer and expressed as a percentage of the total radioactivity in platelets Mayo et al., Biochem. Pharmacol., 30: 2237-2241, 1981. […]
endpoint.label: IC50 (µM)
Give a bare numeral; the unit µM is implied.

compound | units.symbol | IC50
COc1cc(CC2NCCc3c2cc(O)c(O)c3F)cc(OC)c1OC (centres unmarked) [Compound 5-F-TMQ, 5-fluoro-trimetoquinol] | µM | 7.4

Consider the record given below.
Prompt: State its IC50: COc1cc(CC2NCCc3cc(O)c(O)c(F)c32)cc(OC)c1OC (centres unmarked) [Compound 8-F-TMQ, 8-fluoro-trimetoquinol]
Completion: 3.5
